system: C2C12 cells; test: Measurement of cellular respiration (Seahorse), uncoupling bioactivity; type: cell-based; details: Mus musculus, Table 3, various fatty acid side chains, 50 μM compound, maximal increase versus basal oligomycin-treated respiration, means SEM, n=3-6/group, read-out: % stimulation of respiration (baseline = 100%)
Entries and their activity at 50 µM
Write it as a number; the unit % goes unstated.

Some solved cases for reference:
INSERT INTO results (compound, numeric_result) VALUES
  ('CCCCCCCCCCCCCCCCCCCCCC(=O)N[C@@H](Cc1ccccc1)C(=O)O [Compound 18, Docosanoyl-L-phenylalanine]', 100),
  ('CCCCCCCCCCCC(=O)N[C@@H](Cc1ccccc1)C(=O)O [Compound 14, Dodecanoyl-L-phenylalanine]', 96),
  ('CCCCC/C=C\C/C=C\CCCCCCCC(=O)N[C@@H](Cc1ccccc1)C(=O)O [Compound 19]', 218),
  ('CCCCCCCCCCCCCCCCCC(=O)N[C@@H](Cc1ccccc1)C(=O)O [Compound 16, Stearoyl-L-phenylalanine]', 148),
  ('CCCCC/C=C\C/C=C\C/C=C\C/C=C\CCCC(=O)N[C@@H](Cc1ccccc1)C(=O)O [Compound 25]', 200),
  ('CCCCCCCCCCC/C=C\CCCCC(=O)N[C@@H](Cc1ccccc1)C(=O)O [Compound 22, (Z)-Octadec-6-enoyl-L-phenylalanine]', 110),
  ('CC/C=C\C/C=C\C/C=C\C/C=C\C/C=C\CCCC(=O)N[C@@H](Cc1ccccc1)C(=O)O [Compound 26]', 259),
  ('CCCCCCCCCCCCCCCCCCCC(=O)N[C@@H](Cc1ccccc1)C(=O)O [Compound 17, Icosanoyl-L-phenylalanine]', 95),
  ('CCCCCC/C=C\CCCCCCCCCC(=O)N[C@@H](Cc1ccccc1)C(=O)O [Compound 23, (Z)-Octadec-11-enoyl-L-phenylalanine]', 115),
  ('CCC/C=C\C/C=C\C/C=C\CCCCCCC(=O)N[C@@H](Cc1ccccc1)C(=O)O [Compound 20]', 109);

INPUT: So what activity at 50 µM did CCCCCCCC/C=C\CCCCCCCCCC(=O)N[C@@H](Cc1ccccc1)C(=O)O [Compound 24, (Z)-Icos-11-enoyl-L-phenylalanine] get with C2C12 cells?
OUTPUT: 103

INPUT: So what activity at 50 µM did CC/C=C\C/C=C\C/C=C\C/C=C\C/C=C\C/C=C\CCC(=O)N[C@@H](Cc1ccccc1)C(=O)O [Compound 27] get with C2C12 cells?
OUTPUT: 166

INPUT: So what activity at 50 µM did CCCCCCCC/C=C/CCCCCCCC(=O)N[C@@H](Cc1ccccc1)C(=O)O [Compound 21, (E)-Octadec-9-enoyl-L-phenylalanine] get with C2C12 cells?
OUTPUT: 107

INPUT: So what activity at 50 µM did CCCCCCCCCCCCCCCC(=O)N[C@@H](Cc1ccccc1)C(=O)O [Compound 15, Palmitoyl-L-phenylalanine] get with C2C12 cells?
OUTPUT: 180

The measurements presented in this section are drawn from patent US11365177B2.
